Reported values of polymerase ribozyme fitness (log ratio) for individual entries
B1: TPR 5TU (parent)
chain: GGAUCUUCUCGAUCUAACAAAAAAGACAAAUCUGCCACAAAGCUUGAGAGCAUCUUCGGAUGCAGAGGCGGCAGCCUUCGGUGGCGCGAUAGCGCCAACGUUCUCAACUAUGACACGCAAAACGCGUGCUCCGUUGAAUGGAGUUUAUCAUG

Variants of: B1
Protocol Details: polymerase ribozyme fitness, log enrichment relative to wild type (log ratio); higher = more active; in vitro selection for triplet polymerase activity
Fewer inactive variants are shown than the library holds.
Reported Endpoint: polymerase ribozyme fitness (log ratio)

Mutation	Censoring Qualifier	Observed Value
G59A C96A G117U	=	-0.271
A60G C76A A91G C95U A107C	≤	-4.2
U53A C54A A91U	≤	-4.2
A30U C32U G48A C51U U56G C76U	≤	-4.2
U55A U101G	=	-0.568
G86C C105U	=	-1.5
U55A C87U U146A	=	-1.36
G86A A89U C123U	=	-2.1
G68C	=	-3.92
C10G G46U G143C U148C	≤	-4.2
G50U G81A C95U	=	0.505
A49C C54U	≤	-4.2
C43A A52G C69U A91U C96U A106U	≤	-4.2
G128C A150U	=	-4
A24C A29G C51U C95G C96U C114A U146C	≤	-4.2
G70A G100C	≤	-4.2
A89U G141C	=	-0.255
U4G A23U U44G C51U C76G C96U U148C	≤	-4.2
U13A G25U C85G	=	-3.79
C18G A20G G25C U33G G68U C96U A98G	≤	-4.2
U53A C93A U101C C125U C132U G140U A147C	≤	-4.2
U6G U55G G92A	=	-3.71
